Property: IC50; scope: individual compounds
Molecular target: HCV NS3/4A protease complex, BMS strain (genotype 1a) (UniProt P27958, C1454S/C1711G, species not given/STRAIN_BMS)
Construct: b1001: DNA encoding the recombinant HCV NS3/4A protease complex (amino acids 1027 to 1711) ... a three-lysine solubilizing tail was added at the 3′-end of the NS4A coding region; fused on or other part: Three-lysine solubilising tail at the C-terminus of NS4A; A His tag is implied by the pET21b vector and Ni-NTA purification
Assay: Recombinant HCV NS3/4A protease complex FRET peptide assay, BMS strain
Assay type: biochemical
Settings: NS3/4A BMS strain; activity range symbols
Source text: Recombinant HCV NS3/4A Protease Complex FRET Peptide Assay The purpose of this in vitro assay was to measure the inhibition of HCV NS3 protease complexes, derived from the BMS strain, H77C strain or J416S strain, as described below, by compounds of the present invention. This assay provides an indication of how effective compounds of the present invention would be in inhibiting HCV proteolytic activity. Serum from an HCV-infected patient was obtained from Dr. T. Wright, San Francisco Hospital. […]
Counter-ions that a name gives are not always drawn.

| compound | IC50 |
| --- | --- |
| COc1ccc2c(O[C@@H]3C[C@H]4C(=O)N[C@]5(C(=O)NS(=O)(=O)C6CC6)C[C@H]5/C=C\CCCSC(C)(C)[C@H](NC(=O)OC(C)(C)C)C(=O)N4C3)nccc2c1 | < 50 nM |
| CC1(COC(=O)NC2CCCCCC=CC3CC3(C(=O)NS(=O)(=O)C3CC3)NC(=O)C3CC(Oc4nccc5ccccc45)CN3C2=O)CC1 (stereo not drawn) | < 50 nM |
| O=CNC1CCCCCC=CC2CC2(C(=O)NS(=O)(=O)C2CC2)NC(=O)C2CC(Oc3nccc4ccccc34)CN2C1=O (stereo not drawn) | < 50 nM |
| COc1ccc2c(OC3CC4C(=O)NC5(C(=O)NS(=O)(=O)C6CC6)CC5C=CCOCCCC(NC(=O)OC(C)C)C(=O)N4C3)nc(-c3ccccc3)cc2c1 (stereo not drawn) | < 50 nM |
| CNc1ccc(-c2cc3cc(OC)ccc3c(OC3CC4C(=O)NC5(C(=O)NS(=O)(=O)C6CC6)CC5C=CCOCCCC(NC(=O)OC(C)(C)C)C(=O)N4C3)n2)cc1 (stereo not drawn) | < 50 nM |
| COc1ccc2c(OC3CC4C(=O)NC5(C(=O)NS(=O)(=O)C6CC6)CC5C=CCCCCCC(NC(=O)NC5CCCC5)C(=O)N4C3)nccc2c1 (stereo not drawn) | < 50 nM |
| N[C@H]1CCCCC/C=C\[C@@H]2C[C@@]2(C(=O)NS(=O)(=O)C2CC2)NC(=O)[C@@H]2C[C@@H](Oc3nccc4ccccc34)CN2C1=O [Compound 11, bis hydrochloride] | < 50 nM |
| COc1ccc2c(OC3CC4C(=O)NC5(C(=O)NS(=O)(=O)C6CC6)CC5C=CCCCSCC(NC(=O)OC(C)C)C(=O)N4C3)nccc2c1 (stereo not drawn) | < 50 nM |
| COc1ccc2c(OC3CC4C(=O)NC5(C(=O)NS(=O)(=O)C6CC6)CC5C=CCCCOC(C)C(NC(=O)NC5CCCC5)C(=O)N4C3)nccc2c1 (stereo not drawn) | < 50 nM |
| CC1(OC(=O)NC2CCCCCC=CC3CC3(C(=O)NS(=O)(=O)C3CC3)NC(=O)C3CC(Oc4nccc5ccccc45)CN3C2=O)CCCC1 (stereo not drawn) | < 50 nM |
| COc1ccc2c(OC3CC4C(=O)NC5(C(=O)NS(=O)(=O)C6(C)CC6)CC5C=CCCCSCC(NC(=O)OC(C)C)C(=O)N4C3)nccc2c1 (stereo not drawn) | < 50 nM |
| COc1ccc2c(OC3CC4C(=O)NC5(C(=O)NS(=O)(=O)C6CC6)CC5C=CCCCOCC(NC(=O)OC(C)C)C(=O)N4C3)nc(-c3ccccc3)cc2c1 (stereo not drawn) | < 50 nM |
